- Tested on: 565726-208-R1-J5-PDC complex spheroids, growth inhibition
- testName: Anticancer human tumor 565726-208-R1-J5-PDC patient-derived pancreatic adenocarcinoma cell line growth inhibition [RAS]
- conditionContext: second compound 0.003 µM; first compound 10 µM; stronger effect = lower value
// boundary case: viability, T/C equal to 50% maps to -1; strictly smaller maps to 1

compound	discreteLabel
CC(C)NCC(C(=O)N1CCN(c2ncnc3c2C(C)CC3O)CC1)c1ccc(Cl)cc1 (stereo not drawn) + CCn1c(-c2cccnc2C(C)OC)c2c3cc(ccc31)N1CCOC(CC(NC(=O)C(C(C)C)N(C)C(=O)C3(F)CCN(C(=O)C#CC(C)(C)N(C)C)CC3)C(=O)N3CCCC(N3)C(=O)OCC(C)(C)C2)C1	-1
CC(Nc1ccc2c(c1)OCCn1cc(N3C(=O)OCC3C(F)F)nc1-2)C(N)=O (stereo not drawn) + CCn1c(-c2cccnc2C(C)OC)c2c3cc(ccc31)N1CCOC(CC(NC(=O)C(C(C)C)N(C)C(=O)C3(F)CCN(C(=O)C#CC(C)(C)N(C)C)CC3)C(=O)N3CCCC(N3)C(=O)OCC(C)(C)C2)C1	-1
CC(=O)OC12COC1CC(O)C1(C)C(=O)C(O)C3=C(C)C(OC(=O)C(O)C(NC(=O)OC(C)(C)C)c4ccccc4)CC(O)(C(OC(=O)c4ccccc4)C21)C3(C)C (stereo not drawn) + CCn1c(-c2cc(N3CCN(C)CC3)cnc2C(C)OC)c2c3cc(ccc31)-c1csc(n1)CC(NC(=O)C1CC1C)C(=O)N1CCCC(N1)C(=O)OCC(C)(C)C2	1
C[C@@H](NC(=O)c1ncnc(N)c1Cl)c1ncc(C(=O)Nc2cc(C(F)(F)F)c(Cl)cn2)s1 + CCn1c(-c2cc(N3CCN(C)CC3)cnc2C(C)OC)c2c3cc(ccc31)-c1csc(n1)CC(NC(=O)C1CC1C)C(=O)N1CCCC(N1)C(=O)OCC(C)(C)C2	1
NC1c2ccccc2OC12CCN(c1cnc3c(N4CCCc5ncccc54)n[nH]c3n1)CC2 (stereo not drawn) + CCn1c(-c2cccnc2C(C)OC)c2c3cc(ccc31)N1CCOC(CC(NC(=O)C(C(C)C)N(C)C(=O)C3(F)CCN(C(=O)C#CC(C)(C)N(C)C)CC3)C(=O)N3CCCC(N3)C(=O)OCC(C)(C)C2)C1	-1
CC(Nc1ccc2c(c1)OCCn1cc(N3C(=O)OCC3C(F)F)nc1-2)C(N)=O (stereo not drawn) + CCn1c(-c2cc(N3CCN(C)CC3)cnc2C(C)OC)c2c3cc(ccc31)-c1csc(n1)CC(NC(=O)C1CC1C)C(=O)N1CCCC(N1)C(=O)OCC(C)(C)C2	1
C[C@@H](NC(=O)c1ncnc(N)c1Cl)c1ncc(C(=O)Nc2cc(C(F)(F)F)c(Cl)cn2)s1 + CCn1c(-c2cccnc2C(C)OC)c2c3cc(ccc31)N1CCOC(CC(NC(=O)C(C(C)C)N(C)C(=O)C3(F)CCN(C(=O)C#CC(C)(C)N(C)C)CC3)C(=O)N3CCCC(N3)C(=O)OCC(C)(C)C2)C1	-1
CC(C)NCC(C(=O)N1CCN(c2ncnc3c2C(C)CC3O)CC1)c1ccc(Cl)cc1 (stereo not drawn) + CCn1c(-c2cc(N3CCN(C)CC3)cnc2C(C)OC)c2c3cc(ccc31)-c1csc(n1)CC(NC(=O)C1CC1C)C(=O)N1CCCC(N1)C(=O)OCC(C)(C)C2	1

###

Recorded viability, T/C by entry
- System: 565726-208-R1-J5-PDC complex spheroids, growth inhibition
- testName: Anticancer human tumor 565726-208-R1-J5-PDC cell line growth inhibition [RAS];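 further: spheroids exposed to compounds for seven days before readout; 100% = DMSO vehicle control viability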
- conditionContext: compound 0.316 µM; stronger effect = lower value
measurementLabel: viability, T/C

molecule	systemName	assayResult
CC(Nc1ccc2c(c1)OCCn1cc(N3C(=O)OCC3C(F)F)nc1-2)C(N)=O (configuration not stated)	565726-208-R1-J5-PDC complex spheroids, growth inhibition	79.3% [middle of 4 runs]
CC(=O)OC12COC1CC(O)C1(C)C(=O)C(O)C3=C(C)C(OC(=O)C(O)C(NC(=O)OC(C)(C)C)c4ccccc4)CC(O)(C(OC(=O)c4ccccc4)C21)C3(C)C (configuration not stated)	565726-208-R1-J5-PDC complex spheroids, growth inhibition	19.3% [middle of 4 runs]
CCC(CC)c1cc(NC2CCC(N)C2)n2nccc2n1 (configuration not stated)	565726-208-R1-J5-PDC complex spheroids, growth inhibition	105% [middle of 4 runs]
C#Cc1c(F)ccc2cc(O)cc(-c3ncc4c(N5CC6CCC(C5)N6)nc(OCC56CCCN5CC(F)C6)nc4c3F)c12 (configuration not stated)	565726-208-R1-J5-PDC complex spheroids, growth inhibition	94.6% [middle of 8 runs]
NC1c2ccccc2OC12CCN(c1cnc3c(N4CCCc5ncccc54)n[nH]c3n1)CC2 (configuration not stated)	565726-208-R1-J5-PDC complex spheroids, growth inhibition	72.5% [middle of 4 runs]
Cc1nc(N2CCC3(CC2)COC(C)C3N)c(CO)nc1Sc1ccnc(N)c1Cl (configuration not stated)	565726-208-R1-J5-PDC complex spheroids, growth inhibition	85.7% [middle of 4 runs]
C[C@@H](NC(=O)c1ncnc(N)c1Cl)c1ncc(C(=O)Nc2cc(C(F)(F)F)c(Cl)cn2)s1	565726-208-R1-J5-PDC complex spheroids, growth inhibition	101% [middle of 4 runs]

###

- Tested on: 565726-208-R1-J5-PDC complex spheroids, growth inhibition
- testName: Anticancer human tumor 565726-208-R1-J5-PDC cell line growth inhibition [RAS];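 further: spheroids exposed to compounds for seven days before readout; 100% = DMSO vehicle control viability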
- conditionContext: second compound 0.316 µM; first compound 0.0316 µM; stronger effect = lower value
Recorded viability, T/C by entry
measurementLabel: viability, T/C

compound	assayResult
CCN1CCN(Cc2ccc(Nc3ncc(F)c(-c4cc(F)c5nc(C)n(C(C)C)c5c4)n3)nc2)CC1 + C=CC(=O)N1CCN(c2nc(OCC3CCCN3C)nc3c(F)c(-c4nc(N)cc(C)c4C(F)(F)F)c(Cl)cc23)C(C)C1	85%
NC1c2ccccc2OC12CCN(c1cnc3c(N4CCCc5ncccc54)n[nH]c3n1)CC2 (stereo not given) + C=CC(=O)N1CCN(c2nc(OCC3CCCN3C)nc3c(F)c(-c4nc(N)cc(C)c4C(F)(F)F)c(Cl)cc23)C(C)C1	108%
CC(C)NCC(C(=O)N1CCN(c2ncnc3c2C(C)CC3O)CC1)c1ccc(Cl)cc1 (stereo not given) + C#Cc1c(F)ccc2cc(O)cc(-c3ncc4c(N5CC6CCC(C5)N6)nc(OCC56CCCN5CC(F)C6)nc4c3F)c12	104%
C=CC(=O)Nc1cc(Nc2nccc(-c3cn(C)c4ccccc34)n2)c(OC)cc1N(C)CCN(C)C + C=CC(=O)N1CCN(c2nc(OCC3CCCN3C)nc3c(F)c(-c4nc(N)cc(C)c4C(F)(F)F)c(Cl)cc23)C(C)C1	99.8%
CC(C)n1nc(-c2ccc3oc(N)nc3c2)c2c(N)ncnc21 + C=CC(=O)N1CCN(c2nc(OCC3CCCN3C)nc3c(F)c(-c4nc(N)cc(C)c4C(F)(F)F)c(Cl)cc23)C(C)C1	49.7%

###

- System: 565726-208-R1-J5-PDC complex spheroids, growth inhibition
- testName: Anticancer human tumor 565726-208-R1-J5-PDC cell line growth inhibition [RAS];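 further: spheroids exposed to compounds for seven days before readout; 100% = DMSO vehicle control viability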
- conditionContext: second compound 0.316 µM; first compound 0.316 µM; stronger effect = lower value
measurementLabel: viability, T/C (%)

molecule	measurementLabel	assayResult
Nc1ccn(C2OC(CO)C(O)C2(F)F)c(=O)n1 (stereo unspecified) + C=CC(=O)N1CCN(c2nc(OCC3CCCN3C)nc3c(F)c(-c4nc(N)cc(C)c4C(F)(F)F)c(Cl)cc23)C(C)C1	viability, T/C	52.7
C[C@@H](NC(=O)c1ncnc(N)c1Cl)c1ncc(C(=O)Nc2cc(C(F)(F)F)c(Cl)cn2)s1 + C=CC(=O)N1CCN(c2nc(OCC3CCCN3C)nc3c(F)c(-c4nc(N)cc(C)c4C(F)(F)F)c(Cl)cc23)C(C)C1	viability, T/C	104
C=CC(=O)Nc1cc(Nc2nccc(-c3cn(C)c4ccccc34)n2)c(OC)cc1N(C)CCN(C)C + C#Cc1c(F)ccc2cc(O)cc(-c3ncc4c(N5CC6CCC(C5)N6)nc(OCC56CCCN5CC(F)C6)nc4c3F)c12	viability, T/C	113
NC1c2ccccc2OC12CCN(c1cnc3c(N4CCCc5ncccc54)n[nH]c3n1)CC2 (stereo unspecified) + C=CC(=O)N1CCN(c2nc(OCC3CCCN3C)nc3c(F)c(-c4nc(N)cc(C)c4C(F)(F)F)c(Cl)cc23)C(C)C1	viability, T/C	59.7
CCN1CCN(Cc2ccc(Nc3ncc(F)c(-c4cc(F)c5nc(C)n(C(C)C)c5c4)n3)nc2)CC1 + C=CC(=O)N1CCN(c2nc(OCC3CCCN3C)nc3c(F)c(-c4nc(N)cc(C)c4C(F)(F)F)c(Cl)cc23)C(C)C1	viability, T/C	58.8
CCC(CC)c1cc(NC2CCC(N)C2)n2nccc2n1 (stereo unspecified) + C=CC(=O)N1CCN(c2nc(OCC3CCCN3C)nc3c(F)c(-c4nc(N)cc(C)c4C(F)(F)F)c(Cl)cc23)C(C)C1	viability, T/C	103

# credit: PubChem BioAssay AID2060899
